Entries and their SK-Br-3 pHER3 IC50 values follow.
TARGET: human HER3 endogenously expressed on human cancer cells (SK-Br-3, BT-474, MCF7) (human, UniProt P21860 20-1342)
EXPERIMENT: cell-based or functional assay
Provide only the numeric value, understood in pM.

{"BINDER": "MOR13670 (antibody, human IgG1, lambda, V domains shown) VH: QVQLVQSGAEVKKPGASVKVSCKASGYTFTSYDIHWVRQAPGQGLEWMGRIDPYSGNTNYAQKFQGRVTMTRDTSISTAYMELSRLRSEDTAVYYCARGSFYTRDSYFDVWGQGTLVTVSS VL: DIALTQPASVSGSPGQSITISCTGTSSDVGTYNQVSWYQQHPGKAPKLMIYGVSKRPSGVSNRFSGSKSGNTASLTISGLQAEDEADYYCQVADQGWHQVFGGGTKLTVLG", "MEASUREMENT UNIT": "pM", "SK-Br-3 pHER3 IC50": 730}

(Q) Param item = MOR14537 (antibody, human IgG1, lambda, V domains shown, Tested as IgG) VH: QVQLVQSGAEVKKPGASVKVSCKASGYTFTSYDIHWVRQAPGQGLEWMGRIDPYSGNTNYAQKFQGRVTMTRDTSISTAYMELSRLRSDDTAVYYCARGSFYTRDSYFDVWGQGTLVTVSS VL: QSALTQPASVSGSPGQSITISCTGTSSDVGTYNQVSWYQQHPGKAPKLMIYGVSKRPSGVSNRFSGSKSGNTASLTISGLQAEDEADYYCSSATQKPDVTVFGGGTKLTVLG ; retrieve measured SK-Br-3 pHER3 IC50.
(A) 97

(Q) Record request: SK-Br-3 pHER3 IC50 value, item MOR13665 (antibody, human IgG1, lambda, V domains shown) VH: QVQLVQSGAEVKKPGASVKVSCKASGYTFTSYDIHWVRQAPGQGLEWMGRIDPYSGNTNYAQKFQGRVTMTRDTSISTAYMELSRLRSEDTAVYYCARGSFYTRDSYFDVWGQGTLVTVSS VL: DIALTQPASVSGSPGQSITISCTGTSSDVGTYNQVSWYQQHPGKAPKLMIYGVSKRPSGVSNRFSGSKSGNTASLTISGLQAEDEADYYCQSAAIATSVFGGGTKLTVLG
(A) 546
